Listing of entries alongside the reported Ki.
target: E. coli DHFR L28R mutant (Escherichia coli, UniProt P0ABQ4, L28R); construct: made in house; experiment: biochemical; conditions: Ki value, E. coli L28R DHFR; Ki converted from IC50
Numeric only. Scale: µM

smiles_representation=COc1cc([C@H]2CC(=O)Nc3nc(N)[nH]c(=O)c32)ccc1O recorded_endpoint=Ki recorded_number=3.1

Q: Report Ki for COc1ccc([C@@H]2CC(c3c(O)[nH]c(=O)n(C)c3=O)=NN2)cc1OC
Result: 1.04

Q: Report Ki for Cn1c(=O)[nH]c(O)c(C2=NN[C@H](c3cccc4ccccc34)C2)c1=O
Result: 0.98
